target: T1, human ferroportin (SLC40A1) fused in frame with GFP (human) (UniProt Q9NP59)
T1 sequence (looked up): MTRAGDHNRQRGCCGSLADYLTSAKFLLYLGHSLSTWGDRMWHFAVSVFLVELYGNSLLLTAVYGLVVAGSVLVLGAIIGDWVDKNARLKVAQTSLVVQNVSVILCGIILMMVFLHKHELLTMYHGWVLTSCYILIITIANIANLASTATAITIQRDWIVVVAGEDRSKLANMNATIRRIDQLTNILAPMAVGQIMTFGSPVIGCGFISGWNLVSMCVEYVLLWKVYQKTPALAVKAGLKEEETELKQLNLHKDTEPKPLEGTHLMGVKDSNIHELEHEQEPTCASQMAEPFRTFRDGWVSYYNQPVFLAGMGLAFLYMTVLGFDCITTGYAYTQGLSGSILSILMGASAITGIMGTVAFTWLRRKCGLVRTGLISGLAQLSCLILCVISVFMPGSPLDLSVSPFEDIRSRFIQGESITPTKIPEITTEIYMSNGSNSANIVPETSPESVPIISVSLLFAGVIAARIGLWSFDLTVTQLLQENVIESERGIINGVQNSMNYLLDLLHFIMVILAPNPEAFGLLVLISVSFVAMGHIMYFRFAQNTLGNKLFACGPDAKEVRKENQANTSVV
test.protocol: cell-based or functional assay
Starred links: 1 amine or outer side, 2 acyl side, 3 side chain; linkers in the order of their positions; H or OH if unused. Positions of bridges follow the written chain, without caps; N, C: chain ends. Non-standard residues stand in square brackets, D forms with d. Groups on a side chain read outwards from the residue. *: point of attachment. Dip = N[C@H](C(=O)O)C(c1ccccc1)c1ccccc1; γGlu = O=C(O)[C@H](CCC(=O)[*:2])N[*:1]; Palmitoyl = CCCCCCCCCCCCCCCC(=O)*; β3hF = N[C@H](CC(=O)O)Cc1ccccc1; Cit = NC(=O)NCCC[C@H](N)C(=O)O; NMeL = CN[C@@H](CC(C)C)C(=O)O; Isovaleryl = CC(C)CC(=O)*; Npc = nipecotic acid; Ahx = NCCCCCC(=O)O
If the reported FPN EC50 equals or exceeds 30 nM, assign Condition met. If not, assign Condition not met.

Consider the worked cases shown below.
- binder: "DTHXPCIKXKKC (not fully specified; N-term isovaleric acid; 4 Dpa; 8 Lys[1Peg2-1Peg2-Ahx-C18_Diacid]; 9 bhPhe; 11 (D)Lys; C-term NH2) [Compd. ID 10]"
  label.value: "Condition not met"
- binder: "DTHXPCIKXKKC (N-term isovaleric acid; 4 Dpa; 8 (D)Lys; 9 bhPhe; 10 Lys(Ahx-Palm); C-term NH2) [Compd. ID 17]"
  label.value: "Condition not met"
- binder: "Isovaleryl-DTH[Dip][Npc]CIK([γGlu-Palmitoyl])[β3hF]C[dK]-NH2 (disulfide 6-10 (inferred)) [Compd. ID 19]"
  label.value: "Condition not met"

Given DTHFPCIKXKKC (not fully specified; N-term isovaleric acid; 4 MePhe; 8 (D)Lys; 9 bhPhe; 10 Lys(Ahx_Palm); 11 (D)Lys; C-term NH2) [Compd. ID 203] , state whether its FPN EC50 is at least 30 nM.
Condition not met

Given DTHXPCIKXKKC (N-term isovaleric acid; 4 Dpa; 8 (D)Lys; 9 bhPhe; 10 Lys(1Peg2_1Peg2_Ahx_C18_Diacid); 11 (D)Lys; C-term NH2) [Compd. ID 43] , state whether its FPN EC50 is at least 30 nM.
Condition met

Given DTHXPCIKXKKC (N-term isovaleric acid; 4 Dpa; 8 (D)Lys; 9 bhPhe; 10 Lys(Ahx-Palm); 11 (D)Lys; C-term NH2) [Compd. ID 20] , state whether its FPN EC50 is at least 30 nM.
Condition not met

Given DTHXPCIKXKC (N-term isovaleric acid; 4 Dpa; 8 Lys[isoGlu-Palm]; 9 bhPhe; 10 (D)Lys; C-term NH2) [Compd. ID 6] , state whether its FPN EC50 is at least 30 nM.
Condition not met

Given Isovaleryl-DTH[Dip]PCI[Cit][β3hF]K([Ahx-Palmitoyl])[dK]C-NH2 (disulfide 6-12 (inferred)) [Compd. ID 30] , state whether its FPN EC50 is at least 30 nM.
Condition not met

Given Isovaleryl-DTH[Dip][Npc]CI[dK][β3hF]K([Ahx-Palmitoyl])[dK]C-NH2 (disulfide 6-12 (inferred)) [Compd. ID 4] , state whether its FPN EC50 is at least 30 nM.
Condition not met

Given DTHXPCIKXKKC (N-term isovaleric acid; 4 Dpa; 8 (D)Lys; 9 bhPhe; 10 Lys(2Peg11′_KKK_Palm); 11 (D)Lys; C-term NH2) [Compd. ID 44] , state whether its FPN EC50 is at least 30 nM.
Condition met

Given DTHXPCIKXKKC (N-term isovaleric acid; 4 Dpa; 8 (D)Lys; 9 bhPhe; 10 Lys(Ahx_Ahx_Palm); 11 (D)Lys; C-term NH2) [Compd. ID 39] , state whether its FPN EC50 is at least 30 nM.
Condition not met

Given Isovaleryl-DTHFPC[NMeL]K([γGlu-Palmitoyl])FEPRSKGCK-NH2 (disulfide 6-16 (inferred)) [Compd. ID 244] , state whether its FPN EC50 is at least 30 nM.
Condition not met

Given DTHXPCIKXKXC (N-term isovaleric acid; 4 Dpa; 8 (D)Lys; 9 bhPhe; 10 Lys(Ahx-Palm); 11 Cit; C-term NH2) [Compd. ID 24] , state whether its FPN EC50 is at least 30 nM.
Condition met

Data provenance is patent US20240018189A1.
